- Tested on: blackgrass (Alopecurus myosuroides)
- protocol.details: Test A postemergence
- Assay type: in vivo
- assay.setup: Alopecurus myosuroides, post-emergence, 240 h, 500 g ai/ha, postemergence; 0 to 100 scale, 0 is no effect, 100 is complete control; read-out: Blackgrass plant response rating
Decision: pest or weed control at 500 g/ha >= 60% yields Y, all other cases yield N.

>  <structure>
CSc1ccccc1NC(=O)[C@H]1C(=O)N(C)C[C@@H]1c1ccc(OC(F)F)cc1

>  <group>
N

$$$$
>  <structure>
O=C1NC[C@H](c2nccs2)[C@H]1C(=O)Nc1ccccc1F

>  <group>
N

$$$$
>  <structure>
Cc1c(F)cccc1NC(=O)[C@H]1C(=O)N(C)C[C@@H]1c1cc(F)cc(F)c1

>  <group>
Y

$$$$
>  <structure>
CN1C[C@H](c2csc3ccccc23)[C@@H](C(=O)Nc2cccc(F)c2F)C1=O

>  <group>
N

$$$$

* * *

# Plant response rating, Blackgrass per record follows
- Tested on: blackgrass (Alopecurus myosuroides)
- protocol.details: Test A postemergence
- Assay type: in vivo
- assay.setup: Postemergence, 500 g ai/ha; 0 to 100 scale where 0 is no effect and 100 is complete control

>  <compound>
CN1CC(c2ccc(Br)cc2)C(C(=O)Nc2ccc(F)cc2F)C1=O (centres unmarked)

>  <target.or.system>
blackgrass (Alopecurus myosuroides)

>  <Plant response rating, Blackgrass>
70

$$$$
>  <compound>
CN1CC(c2cccc(F)c2)C(C(=O)Nc2ccc(F)cc2F)C1=O (centres unmarked)

>  <target.or.system>
blackgrass (Alopecurus myosuroides)

>  <Plant response rating, Blackgrass>
50

$$$$
>  <compound>
O=C1NCC(c2cc(C(F)(F)F)cc(C(F)(F)F)c2)C1C(=O)Nc1ccc(F)cc1F (centres unmarked)

>  <target.or.system>
blackgrass (Alopecurus myosuroides)

>  <Plant response rating, Blackgrass>
40

$$$$
>  <compound>
O=C1NCC(c2cc(F)cc(C(F)(F)F)c2)C1C(=O)Nc1cccc(F)c1F (centres unmarked)

>  <target.or.system>
blackgrass (Alopecurus myosuroides)

>  <Plant response rating, Blackgrass>
70

$$$$
>  <compound>
Cc1ccc(C2CNC(=O)C2C(=O)Nc2ccc(F)cc2F)c(F)c1 (racemic)

>  <target.or.system>
blackgrass (Alopecurus myosuroides)

>  <Plant response rating, Blackgrass>
0

$$$$
>  <compound>
COc1c(F)ccc(NC(=O)C2C(=O)NCC2c2cc(F)cc(F)c2)c1F (racemic)

>  <target.or.system>
blackgrass (Alopecurus myosuroides)

>  <Plant response rating, Blackgrass>
60

$$$$
>  <compound>
CN1CC(c2cccc(OC(F)F)c2)C(C(=O)Nc2cccc(F)c2F)C1=O (centres unmarked)

>  <target.or.system>
blackgrass (Alopecurus myosuroides)

>  <Plant response rating, Blackgrass>
60

$$$$
>  <compound>
CN1CC(c2cccc(C(F)(F)F)c2)C(C(=O)Nc2ccccc2[N+](=O)[O-])C1=O (centres unmarked)

>  <target.or.system>
blackgrass (Alopecurus myosuroides)

>  <Plant response rating, Blackgrass>
80

$$$$
>  <compound>
O=C1NCC(c2cc(F)c(F)cc2F)C1C(=O)Nc1ccccc1F (racemic)

>  <target.or.system>
blackgrass (Alopecurus myosuroides)

>  <Plant response rating, Blackgrass>
20

$$$$
>  <compound>
O=C(Nc1cccc(F)c1F)C1C(=O)N(CC=CBr)CC1c1cccc(C(F)(F)F)c1 (centres unmarked)

>  <target.or.system>
blackgrass (Alopecurus myosuroides)

>  <Plant response rating, Blackgrass>
0

$$$$
>  <compound>
O=C(Nc1ccccc1F)C1C(=O)N(CC=CCl)CC1c1cccc(C(F)(F)F)c1 (centres unmarked)

>  <target.or.system>
blackgrass (Alopecurus myosuroides)

>  <Plant response rating, Blackgrass>
0

$$$$
